Form field: cAMP EC50 (one value per entry).
Molecular target: human GLP-1 receptor (human, UniProt P43220 24-463)
Experiment: cell-based or functional assay
Note: unit nM is implicit; provide only the numeric part.

These recorded examples may help you get a feel for the data.
IP245 (Fc fusion) YSEGTFTSDYSIAMDEEAVRLFIEWLVKGPAAAGGSGSTASSGSGSATGGGGAATHTCPPCPAPEF : 0.46
IP088 (Fc fusion) YSEGTFTSDYSKLLEEEAVRLFIEWLVKGPAAAGGSGSTASSGSGSATGGGGAATHTCPPCPAPEF : 0.076

State the recorded cAMP EC50 for this entry: IP272 (Fc fusion) YSEGTFTSDYSKLLEEEAVRLFIEWLLAQKAPPGGSGSTASSGSGSATGGGGAATHTCPPC
0.53
